Target: Recombinant human MMP-13 (Homo sapiens)
Construct: made in house; host or cells: baculovirus / insect cells
Assay: biochemical
Settings: fluorogenic MCA-peptide substrate, pH 7.5, room temperature; read-out: MMP-13 IC50
PROPERTY_NAME: log10 IC50 (log10 of the value in nM)

[[record]]
compound = "COc1ccc(C2CCN(c3ccc(S(=O)(=O)C4(C(=O)NO)CCN(C5CC5)CC4)cc3)CC2)cc1 [Example 260]"
property_name = "log10 IC50"
assay_value = -0.40

[[record]]
compound = "O=C(NO)C1(S(=O)(=O)c2ccc(N3CCC(c4ccc(Cl)cc4)CC3)cc2)CCN(CC2CC2)CC1 [Example 274]"
property_name = "log10 IC50"
assay_value = 0.32

[[record]]
compound = "Cc1ccc(C(=O)C2CCN(c3ccc(S(=O)(=O)C4(C(=O)NO)CCN(CC5CC5)CC4)cc3)CC2)cc1 [Example 210]"
property_name = "log10 IC50"
assay_value = 0.04

[[record]]
compound = "CCN1CCC(C(=O)NO)(S(=O)(=O)c2ccc(N3CCC(C(=O)c4ccc(CC5CCC5)cc4)CC3)cc2)CC1 [Example 232]"
property_name = "log10 IC50"
assay_value = 0.11

[[record]]
compound = "Cc1ccc(Cl)cc1N1CCN(C(=O)C2CCN(c3ccc(S(=O)(=O)C4(C(=O)NO)CCOCC4)cc3)CC2)CC1 [Example 6]"
property_name = "log10 IC50"
assay_value = 1.26

[[record]]
compound = "CC(=O)c1ccc(N2CCN(C(=O)C3CCN(c4ccc(S(=O)(=O)C5(C(=O)NO)CCOCC5)cc4)CC3)CC2)cc1 [Example 24]"
property_name = "log10 IC50"
assay_value = 0.83

[[record]]
compound = "CCN1CCC(C(=O)NO)(S(=O)(=O)c2ccc(N3CCC(C(=O)c4ccc(Cl)c(C)c4)CC3)cc2)CC1 [Example 221]"
property_name = "log10 IC50"
assay_value = 0.53

